src = paper PMC10578927

measured_target: IP6K1^L210V (Homo sapiens, UniProt Q92551, L210V)
Construct: made in house; host or cells: E. coli Arctic Express
Sequence (Q92551 whole entry L210V): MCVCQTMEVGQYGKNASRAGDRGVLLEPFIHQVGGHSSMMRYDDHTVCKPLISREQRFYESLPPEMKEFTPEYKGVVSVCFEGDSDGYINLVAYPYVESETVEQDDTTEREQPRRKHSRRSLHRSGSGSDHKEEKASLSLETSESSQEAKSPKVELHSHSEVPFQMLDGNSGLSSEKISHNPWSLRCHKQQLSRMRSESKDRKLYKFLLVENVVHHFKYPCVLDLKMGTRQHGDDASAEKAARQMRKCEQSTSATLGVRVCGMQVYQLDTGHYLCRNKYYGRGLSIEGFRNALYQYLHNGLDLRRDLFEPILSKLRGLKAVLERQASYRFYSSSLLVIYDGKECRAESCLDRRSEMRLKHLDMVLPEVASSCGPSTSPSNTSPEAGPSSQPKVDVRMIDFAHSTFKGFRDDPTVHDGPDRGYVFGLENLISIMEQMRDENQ
assay_summary: NMR activity assay, [13C6]-InsP6 to 5PP-InsP5, with ATP-regenerating system
Format: biochemical
condition_description: 500 μM InsP6
From the text: The gatekeeper mutants L210G and L210A of IP6K1 were generated by site-directed mutagenesis and the enzymes were recombinantly expressed, analogous to the WT kinase, as MBP-fusion proteins. To assess their catalytic activity, we used an NMR assay that harnesses fully ^13C-labeled InsP6 as a substrate and enables direct product readout of 5PP-InsP5 (Figure 2b and Figure 2—figure supplement 1; [Puschmann et al., 2019]; [Harmel et al., 2019]). […]
measured_attribute: IC50 (nM)

smiles_code	unit_name	val
O=C(O)c1ccc2c(c1)C(=O)N(c1ccc(-c3nc4ccc(N5C(=O)c6ccc(C(=O)O)cc6C5=O)cc4[nH]3)cc1)C2=O	nM	87

----------
measured_target: IP6K1^L210V (Homo sapiens, UniProt Q92551, L210V)
Construct: made in house; host or cells: E. coli Arctic Express
assay_summary: NMR activity assay, [13C6]-InsP6 to 5PP-InsP5, with ATP-regenerating system
Format: biochemical
condition_description: NMR assay, Figure 4—figure supplement 2b

compound	IC50 (nM)
O=[N+]([O-])c1ccc(CNc2nc(NCc3cccc(C(F)(F)F)c3)nc3[nH]cnc23)cc1 [TNP, reference compound]	1410

----------
measured_target: IP6KA^wt (Entamoeba histolytica, UniProt N9UNA8)
Sequence (N9UNA8 1-270): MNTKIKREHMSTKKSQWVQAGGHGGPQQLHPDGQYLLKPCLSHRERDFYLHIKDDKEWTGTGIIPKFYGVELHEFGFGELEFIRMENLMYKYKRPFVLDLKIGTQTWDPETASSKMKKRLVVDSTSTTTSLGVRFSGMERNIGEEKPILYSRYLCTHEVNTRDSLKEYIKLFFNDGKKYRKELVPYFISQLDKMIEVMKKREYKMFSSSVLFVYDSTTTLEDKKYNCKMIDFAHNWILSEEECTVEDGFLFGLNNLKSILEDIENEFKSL
pIC50: −log10 of the molar value.
measured_attribute: pIC50

compound	measured_attribute	val
O=C(O)c1ccc2c(c1)C(=O)N(c1ccc(-c3nc4ccc(N5C(=O)c6ccc(C(=O)O)cc6C5=O)cc4[nH]3)cc1)C2=O [FMP-201300]	pIC50	5.24

----------
measured_target: IP6K2^L206V (Homo sapiens, UniProt Q9UHH9, L206V)
Sequence (Q9UHH9 whole entry L206V): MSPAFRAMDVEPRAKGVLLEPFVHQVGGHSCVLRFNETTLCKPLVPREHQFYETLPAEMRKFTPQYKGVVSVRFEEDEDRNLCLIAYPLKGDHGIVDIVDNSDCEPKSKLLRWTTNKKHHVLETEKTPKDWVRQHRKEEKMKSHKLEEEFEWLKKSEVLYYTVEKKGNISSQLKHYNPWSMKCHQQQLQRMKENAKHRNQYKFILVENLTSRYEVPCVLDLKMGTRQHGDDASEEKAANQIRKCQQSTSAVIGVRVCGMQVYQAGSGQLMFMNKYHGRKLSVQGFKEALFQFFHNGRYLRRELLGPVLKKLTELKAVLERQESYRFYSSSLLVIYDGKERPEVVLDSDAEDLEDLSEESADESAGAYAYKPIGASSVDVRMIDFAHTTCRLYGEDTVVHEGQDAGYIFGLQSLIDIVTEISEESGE
assay_summary: NMR activity assay, [13C6]-InsP6 to 5PP-InsP5
condition_description: NMR assay
measured_attribute: IC50 (nM)

molecule	measured_target	measured_attribute	val
O=C(O)c1ccc2c(c1)C(=O)N(c1ccc(-c3nc4ccc(N5C(=O)c6ccc(C(=O)O)cc6C5=O)cc4[nH]3)cc1)C2=O [FMP-201300]	IP6K2^L206V (Homo sapiens, UniProt Q9UHH9, L206V)	IC50	186

----------
measured_target: IP6K1^wt (Homo sapiens, UniProt Q92551)
Construct: made in house; host or cells: E. coli Arctic Express
Sequence (Q92551 whole entry): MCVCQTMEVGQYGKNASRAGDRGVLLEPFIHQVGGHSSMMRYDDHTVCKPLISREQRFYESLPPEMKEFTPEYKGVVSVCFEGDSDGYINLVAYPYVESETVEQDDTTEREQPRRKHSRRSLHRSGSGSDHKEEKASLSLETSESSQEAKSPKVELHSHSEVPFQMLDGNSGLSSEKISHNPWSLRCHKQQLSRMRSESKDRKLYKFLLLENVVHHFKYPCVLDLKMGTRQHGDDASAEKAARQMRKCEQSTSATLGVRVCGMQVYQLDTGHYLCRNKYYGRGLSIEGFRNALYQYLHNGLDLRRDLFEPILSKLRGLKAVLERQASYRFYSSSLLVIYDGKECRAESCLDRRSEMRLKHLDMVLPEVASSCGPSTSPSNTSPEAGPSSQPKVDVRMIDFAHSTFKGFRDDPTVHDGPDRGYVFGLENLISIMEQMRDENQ
assay_summary: NMR activity assay, [13C6]-InsP6 to 5PP-InsP5, with ATP-regenerating system
Format: biochemical
condition_description: 1 mM ATP, ATP-regenerating system

smiles_code	IC50
O=C(O)c1ccc2c(c1)C(=O)N(c1ccc(-c3nc4ccc(N5C(=O)c6ccc(C(=O)O)cc6C5=O)cc4[nH]3)cc1)C2=O	810 nM
